Numbers sourced from patent US11477982B2.

Tested on: STEME: Stellaria media
Assay: Post-emergence herbicidal effect
Format: in vivo
Details: dosage 80 g/ha
Method: 2. Post-Emergence Herbicidal Effect and Crop Plant Compatibility Seeds of monocotyledonous and dicotyledonous weeds and crop plants are placed in sandy loam in plastic or wood-fiber pots, covered with soil and cultivated in a greenhouse under controlled growth conditions, 2 to 3 weeks after sowing, the test plants are treated at the one-leaf stage. […]
reported-property: Herbicidal action against STEME
Write the figure, then the unit, nothing else.

Solved entries (count: 5):
molecule	study-system	Herbicidal action against STEME
Cc1ccc2c(c1)[C@H](Nc1ncc([C@H](C)O)c(N)n1)[C@@H](C)C2 (racemic) [drawing 15, reference compound]	STEME: Stellaria media	70%
Cc1ccc2c(c1)[C@H](Nc1ncc(C(C)O)cn1)[C@@H](C)C2 (stereo partly drawn)	STEME: Stellaria media	90%
Cc1ccc2c(c1)[C@H](Nc1ncc(C(C)(C)O)cn1)[C@@H](C)C2	STEME: Stellaria media	60%
Cc1ccc2c(c1)[C@H](Nc1ncc(C(C)(C)O)c(N)n1)[C@@H](C)C2 [drawing 13, reference compound]	STEME: Stellaria media	0%
Cc1ccc2c(c1)[C@H](Nc1ncc(C(C)(C)O)c(C)n1)[C@@H](C)C2	STEME: Stellaria media	100%

Give the measured Herbicidal action against STEME of Cc1ccc2c(c1)[C@H](Nc1ncc(C(C)(C)O)c(N)n1)[C@@H](C)C2 [drawing 12, reference compound] .
0%
